Sourced from PubChem BioAssay

As shown below, each of these compounds has a reported composite z-score value.
Tested on: Sonic hedgehog protein (Shh)
Experiment: small-molecule binders of Shh protein, primary screen, biochemical, small-molecule microarray, 635/667 nm fluorescence (AID 1151);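 also: Shh protein binding to compounds spotted on small-molecule microarray slides; score combines spot fluorescence intensity with signal-to-noise across triplicate slides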
Conditions: small-molecule microarray binding, 635 nm fluorescence; higher = more signal
measuredEndpoint: composite z-score

{"compound": "CN(C)CCCC[C@@H]1NC(=O)[C@@H]2C[C@H](C(=O)O)[C@H](c3cccc(OCCO)c3)N2C1=O", "measuredEndpoint": "composite z-score", "experimentalResult": 0.212}
{"compound": "COC(=O)[C@@]1(Cc2ccccc2)[C@H]2c3cc(C(=O)N4CCCC4)n(CCSCCO)c3C[C@H]2CN1C(=O)c1ccccc1", "measuredEndpoint": "composite z-score", "experimentalResult": 0.0779}
{"compound": "CN(C)CCCNC(=O)[C@@H]1c2ccccc2C(=O)N(C2CCCCC2)[C@H]1c1ccc(CO)cc1", "measuredEndpoint": "composite z-score", "experimentalResult": 1.81}
{"compound": "C=CCNC(=O)[C@@H]1[C@H]2C(=O)O[C@H](c3ccccc3)[C@H](c3ccccc3)N2[C@H](c2ccc(O)cc2)[C@@]12C(=O)Nc1ccc(C#CCC(C(=O)OC)C(=O)OC)cc12", "measuredEndpoint": "composite z-score", "experimentalResult": 0.8}
{"compound": "COCCOC(=O)N1C(=O)[C@@]2(c3ccccc31)[C@H](c1ccc(OCCO)cc1)N1[C@H](c3ccccc3)[C@H](c3ccccc3)OC(=O)[C@H]1[C@@H]2C(=O)N1CCCCCCC1", "measuredEndpoint": "composite z-score", "experimentalResult": 2.29}
{"compound": "Cc1ccc(S[C@]2(C(=O)NC(C)C)CC(=O)N(C(C)C)[C@@H]2c2ccc(CO)cc2I)cc1", "measuredEndpoint": "composite z-score", "experimentalResult": -0.244}
{"compound": "CCOC(=O)C1=CC[C@@H](c2ccccc2)N(S(=O)(=O)c2ccc(C)cc2)[C@H]1C=Cc1ccccc1", "measuredEndpoint": "composite z-score", "experimentalResult": -0.723}
{"compound": "COc1ccc(C(=O)Nc2cccc(CN3C(=O)[C@]4(O[C@H](CCn5cc([C@H](O)c6ccccc6)nn5)[C@@H]([Si](C)(C)c5ccc(OC)cc5)[C@@H]4C)c4ccccc43)c2)cc1", "measuredEndpoint": "composite z-score", "experimentalResult": 1.69}
{"compound": "O=C(O)[C@H]1C[C@H]2C(=O)N[C@@H](Cc3ccccc3)C(=O)N2[C@H]1c1cccc(OCCO)c1", "measuredEndpoint": "composite z-score", "experimentalResult": 1.9}
{"compound": "Cc1ccc(C(C)CC(O)C2C=CC3C(=O)N(c4ccccc4)C(=O)C3N2Nc2ccc(C#N)cc2)o1 (stereo not drawn)", "measuredEndpoint": "composite z-score", "experimentalResult": 0.218}
{"compound": "COC(=O)[C@@]1(Cc2ccccc2)[C@H]2c3cc(C(=O)N(C)C)n(CCn4cc([N+](=O)[O-])nc4C)c3C[C@H]2CN1C(=O)c1ccccc1", "measuredEndpoint": "composite z-score", "experimentalResult": 0.383}
{"compound": "NCCCCCNC(=O)[C@H]1C[C@H]2C(=O)N[C@@H](Cc3ccccc3)C(=O)N2[C@H]1c1ccc(O)cc1", "measuredEndpoint": "composite z-score", "experimentalResult": 0.313}
{"compound": "Cc1ccc(S[C@]2(C(=O)NCc3ccccc3)CC(=O)N(Cc3cc(C(F)(F)F)cc(C(F)(F)F)c3)[C@@H]2c2ccc(CO)cc2I)cc1", "measuredEndpoint": "composite z-score", "experimentalResult": -0.757}
{"compound": "O=C1C[C@@](C(=O)NCC(F)(F)F)(c2ccc([N+](=O)[O-])cc2)[C@@H](c2ccc(CO)cc2)N1CC12CC3CC(CC(C3)C1)C2", "measuredEndpoint": "composite z-score", "experimentalResult": 1.34}
{"compound": "CN1C(=O)C2C(C1=O)C1C=C(CCCO)C2C(C2CC2)N1Cc1cc2c(cc1Br)OCO2 (stereo not drawn)", "measuredEndpoint": "composite z-score", "experimentalResult": 0.265}
{"compound": "COC(=O)[C@@]1(Cc2ccccc2CN=[N+]=[N-])N=C(c2ccc(OCCCO)cc2)O[C@H]1c1ccccc1CN=[N+]=[N-]", "measuredEndpoint": "composite z-score", "experimentalResult": -0.427}
{"compound": "CC(C)(C)OC(=O)CC[C@]12N=C(c3ccc(OCCCO)cc3)O[C@H]1c1ccccc1N(Cc1ccccc1)C2=O", "measuredEndpoint": "composite z-score", "experimentalResult": 1.12}
{"compound": "O=C1O[C@H](c2ccccc2)[C@H](c2ccccc2)N2[C@H]1[C@@H](C(=O)Nc1nc3ccccc3s1)[C@]1(C(=O)Nc3ccc(C#CC4=CCCCC4)cc31)[C@H]2c1ccc(O)cc1", "measuredEndpoint": "composite z-score", "experimentalResult": 1}
{"compound": "O=C1N[C@@H](Cc2ccccc2)C(=O)N2[C@@H]1C[C@@H](C(=O)O)[C@H]2c1ccc(O)cc1", "measuredEndpoint": "composite z-score", "experimentalResult": 2.02}
{"compound": "CO[C@H]1O[C@H](CO)[C@@H](OC(=O)c2ccc(Br)cc2)[C@@H]2OC(=O)[C@H](Cc3ccccc3)C/C=C/C[C@@H](Cc3ccccc3)C(=O)O[C@@H]12", "measuredEndpoint": "composite z-score", "experimentalResult": 0.984}
{"compound": "COc1ccc(C(=O)Nc2cccc(CN3C(=O)[C@@]4(O[C@@H](CC(=O)N(CCO)Cc5ccccc5)[C@H]([Si](C)(C)c5ccc(OC)cc5)[C@H]4C)c4ccccc43)c2)cc1", "measuredEndpoint": "composite z-score", "experimentalResult": 1.51}
{"compound": "COCCOC(=O)N1C(=O)[C@@]2(c3cc(C#CCNC(N)=O)ccc31)[C@H](c1ccc(OCCO)cc1)N1[C@H](c3ccccc3)[C@H](c3ccccc3)OC(=O)[C@H]1[C@@H]2C(=O)NC[C@H](O)c1ccccc1", "measuredEndpoint": "composite z-score", "experimentalResult": 1.27}
{"compound": "O=c1cccc(-c2ccco2)o1", "measuredEndpoint": "composite z-score", "experimentalResult": 2.07}
{"compound": "C=C(COC)/C(=C/C[C@H](OC(C)=O)c1cccc(OCCO)c1)c1cnc2ccccc2c1", "measuredEndpoint": "composite z-score", "experimentalResult": 2.11}
{"compound": "COc1ccc(C#Cc2ccc3c(c2)[C@]2(C(=O)N3)[C@H](c3ccc(OCCO)cc3)N3[C@H](c4ccccc4)[C@H](c4ccccc4)OC(=O)[C@H]3[C@@H]2C(=O)N2CCc3cc(OC)c(OC)cc3C2)cc1", "measuredEndpoint": "composite z-score", "experimentalResult": 2.15}
{"compound": "CC(C)C[C@@H]1NC(=O)[C@@]23C(=O)N[C@@H](Cc4ccccc4)C2[C@H](C)[C@@]2(C)O[C@H]2C3/C=C/C/C=C\\CNC(=O)[C@@H](C)NC1=O (stereo partly drawn)", "measuredEndpoint": "composite z-score", "experimentalResult": 1.29}
{"compound": "O=C1C2C=CC(C(O)c3ccc(I)cc3)N(Nc3ccccc3)C2C(=O)N1c1ccccc1 (stereo not drawn)", "measuredEndpoint": "composite z-score", "experimentalResult": 0.0756}
{"compound": "CN1C(=O)C2C=CC(C(O)c3cc(C(F)(F)F)cc(C(F)(F)F)c3)N(Nc3ccccc3)C2C1=O (stereo not drawn)", "measuredEndpoint": "composite z-score", "experimentalResult": -0.145}
